# Test System: recombinant human TYRO3 (Homo sapiens (Human), UniProt Q06418)
# Sequence (Q06418 41-890): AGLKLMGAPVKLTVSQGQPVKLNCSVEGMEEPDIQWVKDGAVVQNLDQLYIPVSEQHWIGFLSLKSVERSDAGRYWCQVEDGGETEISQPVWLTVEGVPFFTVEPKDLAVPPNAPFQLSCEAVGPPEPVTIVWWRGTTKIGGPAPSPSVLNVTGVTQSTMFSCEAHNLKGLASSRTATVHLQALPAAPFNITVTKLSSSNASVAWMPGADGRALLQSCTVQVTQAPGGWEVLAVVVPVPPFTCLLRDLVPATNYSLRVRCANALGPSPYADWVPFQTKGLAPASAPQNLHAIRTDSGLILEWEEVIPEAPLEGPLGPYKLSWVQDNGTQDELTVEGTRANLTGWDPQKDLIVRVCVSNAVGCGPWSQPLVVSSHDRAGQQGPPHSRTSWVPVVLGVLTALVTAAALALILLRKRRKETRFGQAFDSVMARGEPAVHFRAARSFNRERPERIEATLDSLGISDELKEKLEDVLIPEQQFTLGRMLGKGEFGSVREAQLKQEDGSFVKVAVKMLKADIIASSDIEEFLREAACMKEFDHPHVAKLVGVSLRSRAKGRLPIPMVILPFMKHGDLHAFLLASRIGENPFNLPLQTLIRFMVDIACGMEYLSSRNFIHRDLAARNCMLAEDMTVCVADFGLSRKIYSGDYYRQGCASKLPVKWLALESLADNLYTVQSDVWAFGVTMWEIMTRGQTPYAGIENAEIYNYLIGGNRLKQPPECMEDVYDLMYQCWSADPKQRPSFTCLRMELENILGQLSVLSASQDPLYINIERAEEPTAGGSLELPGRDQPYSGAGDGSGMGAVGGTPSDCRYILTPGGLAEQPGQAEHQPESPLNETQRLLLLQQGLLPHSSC
# Assay Method Text: TYRO3 enzymatic assay (radiometric [32P]-ATP, Poly(Glu,Tyr) substrate)
# Setup Conditions: recombinant human TYRO3, [32P]-ATP
Observation Type: IC50

- COc1ccc(-c2c[nH]c3ncc(-c4ccc(CN5CCCC(F)C5)cc4)cc23)cn1 (stereo not drawn) [compound 40]: 0.151 to 0.5 µM
- OCc1[nH]c2ncc(-c3ccc(CN4CCCC(O)C4)cc3)cc2c1-c1cccc(F)c1 (single isomer, unassigned; enantiomer 2) [compound 89]: 0.051 to 0.15 µM
- CC(C)Oc1ccc(-c2c[nH]c3ncc(-c4ccc(CN5CCCC(O)C5)cc4)cc23)cc1C#N (stereo not drawn) [compound 19]: 0.051 to 0.15 µM
